Test system: 817829-284-R-J1-PDC multi-cell spheroid viability
Experiment: Anticancer human tumor 817829-284-R-J1-PDC patient-derived colon adenocarcinoma cell line growth inhibition [PI3K]
Settings: second compound 0.0316 µM; first compound 1 µM; stronger effect = lower value
From the text: Combinatorial screen of targeted agents with the PI3K inhibitors inavolisib, alpelisib, duvelisib, and copanlisib in multi-cell type tumor spheroids A high-throughput screen of multi-cell type tumor spheroids was designed to identify active combinations of targeted small molecules and PI3K pathway inhibitors. […] Compounds. […] If the clinical Cmax for an agent had not been determined, the highest concentration tested was 10 microM. […]
viability, T/C strictly under 50% means Y; at 50% or over means N.

Asked: Dear colleague, could you confirm whether viability, T/C of CC1(C)CCC(Nc2ncc(C(F)(F)F)c(-c3c[nH]c4c(P(C)(C)=O)c(C#N)ccc34)n2)CN1 (centres undefined) + Cc1nc(NC(=O)N2CCCC2C(N)=O)sc1-c1ccnc(C(C)(C)C(F)(F)F)c1 falls below 50%? Thanks.
Given back: Y

Asked: Below 50% on viability, T/C? Entry CNC(=O)c1ccc(N2C(=S)N(c3ccc(C#N)c(C(F)(F)F)c3)C(=O)C2(C)C)cc1F + Cc1nc(NC(=O)N2CCCC2C(N)=O)sc1-c1ccnc(C(C)(C)C(F)(F)F)c1
Given back: N

Asked: Record C#Cc1c(F)ccc2cc(O)cc(-c3ncc4c(N5CC6CCC(C5)N6)nc(OCC56CCCN5CC(F)C6)nc4c3F)c12 (centres undefined) + CC(Nc1ccc2c(c1)OCCn1cc(N3C(=O)OCC3C(F)F)nc1-2)C(N)=O : is its viability, T/C strictly below 50%?
Given back: N

Asked: Is the reported viability, T/C for CC1(C)CCC(Nc2ncc(C(F)(F)F)c(-c3c[nH]c4c(P(C)(C)=O)c(C#N)ccc34)n2)CN1 (centres undefined) + CC(Nc1ccc2c(c1)OCCn1cc(N3C(=O)OCC3C(F)F)nc1-2)C(N)=O strictly below 50%?
Given back: Y

Asked: Please check: viability, T/C for Cn1nccc1Nc1nccc(-c2ccn(C(CO)c3ccc(Cl)c(F)c3)c(=O)c2)n1 (centres undefined) + CC(Nc1ccc2c(c1)OCCn1cc(N3C(=O)OCC3C(F)F)nc1-2)C(N)=O , strictly under 50% or not?
Given back: N

Asked: Record CC(Cn1ccc(-c2ccc(C#N)c(Cl)c2)n1)NC(=O)c1cc(C(C)O)[nH]n1 (centres undefined) + CC(Nc1ccc2c(c1)OCCn1cc(N3C(=O)OCC3C(F)F)nc1-2)C(N)=O : is its viability, T/C strictly below 50%?
Given back: N

Asked: Just wondering, is viability, T/C of CC(C)NCC(C(=O)N1CCN(c2ncnc3c2C(C)CC3O)CC1)c1ccc(Cl)cc1 (centres undefined) + Cc1nc(NC(=O)N2CCCC2C(N)=O)sc1-c1ccnc(C(C)(C)C(F)(F)F)c1 below 50%?
Given back: Y

###

Give viability, T/C for every item shown.
system: 817829-284-R-J1-PDC multi-cell spheroid viability; assay: Anticancer human tumor 817829-284-R-J1-PDC cell line growth inhibition [PI3K]; details: second compound 0.316 µM; first compound 0.1 µM; stronger effect = lower value;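 further: spheroids exposed to agents for seven days before readout; percent of vehicle DMSO control viability which is 100%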

Asked: Entry under review: CC1(C)CCC(CN2CCN(c3ccc(C(=O)NS(=O)(=O)c4ccc(NCC5CCOCC5)c([N+](=O)[O-])c4)c(Oc4cnc5[nH]ccc5c4)c3)CC2)=C(c2ccc(Cl)cc2)C1 + CC(Nc1ccc2c(c1)OCCn1cc(N3C(=O)OCC3C(F)F)nc1-2)C(N)=O . Reported viability, T/C?
Given back: 44.6%

Asked: Reported viability, T/C, compound CC(Cn1ccc(-c2ccc(C#N)c(Cl)c2)n1)NC(=O)c1cc(C(C)O)[nH]n1 (stereo not given) + CC(Nc1ncnc2nc[nH]c12)c1cc2cccc(Cl)c2c(=O)n1-c1ccccc1 : ____
Given back: 82.7%

Asked: GET /values?readout=viability, T/C&item= C[C@@H](NC(=O)c1ncnc(N)c1Cl)c1ncc(C(=O)Nc2cc(C(F)(F)F)c(Cl)cn2)s1 + COc1c(OCCCN2CCOCC2)ccc2c3n(c(=NC(=O)c4cnc(N)nc4)nc12)CCN3
Given back: 20%

Asked: Quick check: viability, T/C of CC(C)n1nc(-c2ccc3oc(N)nc3c2)c2c(N)ncnc21 + CC(Nc1ncnc2nc[nH]c12)c1cc2cccc(Cl)c2c(=O)n1-c1ccccc1 ?
Given back: 27.5%

Asked: Can you share its viability, T/C? I mean this compound: CNC(=O)c1ccc(N2C(=S)N(c3ccc(C#N)c(C(F)(F)F)c3)C(=O)C2(C)C)cc1F + Cc1nc(NC(=O)N2CCCC2C(N)=O)sc1-c1ccnc(C(C)(C)C(F)(F)F)c1
Given back: 85.5%

Asked: # query: viability, T/C of entry CC1(C)CCC(CN2CCN(c3ccc(C(=O)NS(=O)(=O)c4ccc(NCC5CCOCC5)c([N+](=O)[O-])c4)c(Oc4cnc5[nH]ccc5c4)c3)CC2)=C(c2ccc(Cl)cc2)C1 + Cc1nc(NC(=O)N2CCCC2C(N)=O)sc1-c1ccnc(C(C)(C)C(F)(F)F)c1
Given back: 58.8%

Asked: Need viability, T/C, item Cn1nccc1Nc1nccc(-c2ccn(C(CO)c3ccc(Cl)c(F)c3)c(=O)c2)n1 (stereo not given) + Cc1nc(NC(=O)N2CCCC2C(N)=O)sc1-c1ccnc(C(C)(C)C(F)(F)F)c1
Given back: 99.5%

Asked: Any idea what its viability, T/C is? The compound is CC1(C)CCC(Nc2ncc(C(F)(F)F)c(-c3c[nH]c4c(P(C)(C)=O)c(C#N)ccc34)n2)CN1 (stereo not given) + Cc1nc(NC(=O)N2CCCC2C(N)=O)sc1-c1ccnc(C(C)(C)C(F)(F)F)c1
Given back: 27.7%

Asked: Looking for the measured viability, T/C of CC(Cn1ccc(-c2ccc(C#N)c(Cl)c2)n1)NC(=O)c1cc(C(C)O)[nH]n1 (stereo not given) + COc1c(OCCCN2CCOCC2)ccc2c3n(c(=NC(=O)c4cnc(N)nc4)nc12)CCN3 , can you help?
Given back: 21.3%

Asked: Given the compound CC(Cn1ccc(-c2ccc(C#N)c(Cl)c2)n1)NC(=O)c1cc(C(C)O)[nH]n1 (stereo not given) + CC(Nc1ccc2c(c1)OCCn1cc(N3C(=O)OCC3C(F)F)nc1-2)C(N)=O , what is its reported viability, T/C?
Given back: 66.1%

Reference source: PubChem BioAssay AID1963969
